B1: glmS ribozyme (parent)
chain: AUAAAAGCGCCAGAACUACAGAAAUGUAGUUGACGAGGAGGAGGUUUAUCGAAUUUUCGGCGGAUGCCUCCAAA

# Variants of: B1
# experimentalProtocol: self-cleavage kobs at 640 uM GlcN6P; higher = faster cleavage; RNA array
# setupConditions: with glucosamine-6-phosphate
Fewer inactive variants are shown than the library holds.
measurementType: self-cleavage kobs at 640 uM GlcN6P

variantKey	result
C34U U55A G60U	< 1e-05 s⁻¹
C10U C61A C67G C71G	0.000112 s⁻¹
A42U G51C G59U	< 1e-05 s⁻¹
A12U C68U	0.00195 s⁻¹
A15G U49G G63U C67A	< 1e-05 s⁻¹
U49A C50U C67A C68G C71A	5.04e-05 s⁻¹
G9A G51U A52C	< 1e-05 s⁻¹
C16U U55G C68U	0.00106 s⁻¹
C8U A53C	< 1e-05 s⁻¹
G37A U49A	< 1e-05 s⁻¹
A33G A48C C68U	< 1e-05 s⁻¹
U45A A52G	0.000699 s⁻¹
U54A U65G	0.000927 s⁻¹
C8A A14U	< 1e-05 s⁻¹
G29U A42G A53U	0.00125 s⁻¹
G40C A42G A53C	0.00018 s⁻¹
C34A C50G C71U	0.000408 s⁻¹
C10U G40U U49A	< 1e-05 s⁻¹
C11U G32A	0.00014 s⁻¹
G29C G37U U46A	< 1e-05 s⁻¹
C10U G35U A39U A48G	< 1e-05 s⁻¹
G9A G44C C68A	< 1e-05 s⁻¹
A12U A42G C70G	0.000705 s⁻¹
C34U C58G U65G	< 1e-05 s⁻¹
G43U C71G	< 1e-05 s⁻¹
G35C G37U U56G	< 1e-05 s⁻¹
A15G A33C	8.06e-05 s⁻¹
A52G C68G	6.55e-05 s⁻¹
A36U U56A	< 1e-05 s⁻¹
G9U A42U	< 1e-05 s⁻¹
G35U G62C	< 1e-05 s⁻¹
C8A G40A	< 1e-05 s⁻¹
C10G A14G A36C G62U	< 1e-05 s⁻¹
G29U G32U C58U C67A	3.68e-05 s⁻¹
C11G G29C A52G U55A C58A	< 1e-05 s⁻¹
A6G G38U U54C	< 1e-05 s⁻¹
G37C A52C	< 1e-05 s⁻¹
A6C C8U C10G A12U G38U	< 1e-05 s⁻¹
G13A A42G G43U C70A	< 1e-05 s⁻¹
U54A C67A	0.00148 s⁻¹
U47C A53U U56A G59C	< 1e-05 s⁻¹
U31A G41U	0.000289 s⁻¹
A52C U65C	< 1e-05 s⁻¹
A12C G32A A64G C71A	< 1e-05 s⁻¹
G40U G44A C50G C71G	< 1e-05 s⁻¹
U30G C34A U47A	< 1e-05 s⁻¹
